Assay: adipocyte viability effects, profiling panel, cell-based, 3T3-L1 adipocytes, calcein-AM fluorescence, 48 h, basal (AID 1163); further: test concentration not given here
Details: 3T3-L1 adipocytes viability, higher = more signal
Readout Label: z-score
Please give only the number in your answer, with no unit.

O=C1O[C@@H](c2ccccc2)[C@@H](c2ccccc2)N2[C@@H](c3ccccc3OCCO)[C@]3(C(=O)Nc4ccc(C#CCCO)cc43)[C@@H](C(=O)O)[C@H]12 : 1.78
CO[C@@H]1COC(=O)[C@H](C)NC(=O)[C@@H](C)COC(=O)CCC[C@H]1C : -0.459

Form field z-score, entry CCCNC(=O)OC[C@H]1O[C@H](CCON=CC[C@@H]2C=C[C@H](OC(C)=O)[C@@H](COC(C)=O)O2)C=C[C@@H]1Oc1ccc(OC)cc1 : -0.217

Form field z-score, entry COc1ccc(O[C@H]2C=C[C@@H](c3ccccc3)O[C@@H]2COC(=O)CCC(C)=NOC[C@@H](C)[C@H](OCc2ccccc2)C(C)C)cc1 : 0.13

Form field z-score, entry COCCOC(=O)N1C(=O)[C@@]2(c3cc(C#CCNC(N)=O)ccc31)[C@H](c1ccccc1OCCO)N1[C@H](c3ccccc3)[C@H](c3ccccc3)OC(=O)[C@H]1[C@@H]2C(=O)N1CCN(c2ncccn2)CC1 : 0.457

Form field z-score, entry CCCNC(=O)OC[C@H]1O[C@H](CCON=C[C@@H](OC)[C@H](C)C=CCC(=O)OC)C=C[C@@H]1Oc1ccc(OC)cc1 : 0.764

Form field z-score, entry CCCCCN1CC=CC23O[C@@H]4C=CCOC(=O)[C@@H]4[C@H]2C(=O)N(CCCCCCO)[C@@H]3C1=O (some centres not stated) : -0.0159

---

Test: yeast growth modulation, basal conditions, primary screen, YJM789 clinical isolate, OD600, 24 h (AID 1089);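 further: growth of clinical yeast isolate S. cerevisiae YJM 789 seeded 1000 cells per well; test concentration not given here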
Conditions: S. cerevisiae YJM789 growth, higher = more signal, called active from +8 up or from −8 down
Readout Label: z-score
Please give only the number in your answer, with no unit.

Completed entries (count: 5):
C=CCOC(=O)[C@H]1[C@@H]2C(=O)O[C@@H](c3ccccc3)[C@@H](c3ccccc3)N2[C@@H](c2ccc(OCCOC(=O)[C@H]3C[C@H]4C(=O)N[C@@H](Cc5ccccc5)C(=O)N4[C@H]3c3ccc(O)cc3)cc2)[C@]12C(=O)Nc1ccccc12 : 1.44
CCOC(=O)CCN1C(=O)[C@H]2[C@H]3[C@H](O)[C@H](O)CC(=NOCc4ccccc4)[C@@H]3CC[C@H]2C1=O : -0.14
CC(C)NC(=O)[C@@H]1c2ccccc2C(=O)N(CC23CC4CC(CC(C4)C2)C3)[C@H]1c1ccc(CO)cc1 : -1.44
CCOC(=O)NN=C1C[C@@H](O)[C@@H](O)[C@@H]2[C@@H]3C(=O)N(C[C@@H]4CCCO4)C(=O)[C@@H]3CC[C@@H]12 : 0.822
CCCC[C@H]1OB(O)C[C@H]2C1=C(C)C[C@H]1C(=O)N(C)C(=O)[C@H]12 : -0.334

// next item, z-score requested
Form field z-score, entry CN(C)CCCNC(=O)[C@@H]1c2ccccc2C(=O)N(Cc2cc(F)cc(C(F)(F)F)c2)[C@H]1c1ccc(CO)cc1 : -0.414

---

Molecular target: Pro-neuregulin-1, membrane-bound isoform (Homo sapiens) (UniProt Q02297)
Sequence (Q02297 whole entry, looked up, canonical isoform): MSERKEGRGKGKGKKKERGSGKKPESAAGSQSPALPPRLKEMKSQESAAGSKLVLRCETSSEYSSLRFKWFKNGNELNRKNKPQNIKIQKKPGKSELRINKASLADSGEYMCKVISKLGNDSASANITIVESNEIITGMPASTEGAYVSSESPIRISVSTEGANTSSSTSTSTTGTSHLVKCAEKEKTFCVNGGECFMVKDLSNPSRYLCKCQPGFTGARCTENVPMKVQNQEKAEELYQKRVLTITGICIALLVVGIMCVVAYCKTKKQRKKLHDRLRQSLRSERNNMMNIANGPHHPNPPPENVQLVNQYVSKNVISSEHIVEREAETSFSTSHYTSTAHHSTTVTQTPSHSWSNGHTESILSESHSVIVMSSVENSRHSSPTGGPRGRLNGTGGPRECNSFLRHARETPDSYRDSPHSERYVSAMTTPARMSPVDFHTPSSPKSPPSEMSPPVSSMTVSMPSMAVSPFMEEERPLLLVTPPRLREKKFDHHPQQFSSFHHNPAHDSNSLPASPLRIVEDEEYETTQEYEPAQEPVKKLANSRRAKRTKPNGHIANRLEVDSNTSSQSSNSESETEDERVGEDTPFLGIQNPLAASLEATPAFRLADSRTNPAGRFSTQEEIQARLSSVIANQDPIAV
Assay: NRG1 binders on small-molecule microarrays, primary screen, psychiatric disease protein project, biochemical, small-molecule microarray, fluorescence 635/667 (AID 1075);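 further: score combines 667 nm spot fluorescence with signal to noise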
Details: NRG1 binding, 635 nm fluorescence, higher = more signal
Readout Label: composite z-score
Please give only the number in your answer, with no unit.

Completed entries (count: 5):
CC(=O)OC[C@H]1O[C@@H](ON=C(C)CCN2CCc3nc(-c4ccccc4)c(-c4ccccc4)cc3C2)[C@H](OC(C)=O)[C@@H](OC(C)=O)[C@@H]1OC(C)=O : 0.817
CC(CCN1CCCCc2nc(C)c(C)cc21)=NOC(C)CN1CCCCc2nc(C)c(C)cc21 (stereo not given) : 0.963
Cc1ccc(S[C@]2(C(=O)NCC(F)(F)F)CC(=O)N(Cc3ccccc3Cl)[C@@H]2c2ccc(CO)cc2I)cc1 : 2.01
CO[C@@H]1COC(=O)CCC[C@@H](C)[C@H](OC)COC(=O)CCC[C@H]1C : -0.63
O=C1[C@H]2[C@H]3[C@H](O)[C@H](O)CC(=NOC[C@@H](O)COCc4ccco4)[C@@H]3CC[C@H]2C(=O)N1c1ccc(F)cc1F : -0.592

Form field composite z-score, entry COCCCNC(=O)[C@]1(CCC(=O)OC(C)(C)C)N=C(c2ccc(OCCCO)cc2)O[C@@H]1c1ccccc1N=[N+]=[N-] : 1.62

Form field composite z-score, entry CN1C(=O)[C@@]2(CCC(=O)OC(C)(C)C)N=C(c3ccc(OCCCO)cc3)O[C@H]2c2ccccc21 : 0.859

Form field composite z-score, entry CCc1cccc(NC(=O)O[C@H]2[C@H](OC(=O)Nc3ccc4c(c3)OCO4)[C@@H](OC(=O)Nc3ccc4c(c3)OCO4)[C@@H](OC)O[C@@H]2CO)c1 : -0.396

Form field composite z-score, entry CO[C@@H]1COC(=O)[C@H](C)NC(=O)[C@@H](C)COC(=O)CCC[C@H]1C : -0.0231
